Data origin: patent US9273075B2

Overview of recorded half-life for various compounds
# procedure text: Solution Stability Assay
# Format: physicochemical
# particulars: potassium phosphate buffer with 30% acetonitrile, pH 6.5; read-out: Stability (t1/2, h) pH 6.5 (converted)
# Experimental: Acetonitrile Stock Solution: Acetonitrile Stock Solution of the prodrug was prepared by dissolving 1.5-2.0 mg of weighted compound in 5.0 mL of acetonitrile in a 5 mL volumetric flask. […] Experimental Methods: Following the sample preparation procedure described above a single sample (n=1) was prepared for each pH condition. The samples were then placed in an HPLC autosampler maintained at 37° C. and samples were analyzed over a 24 h period. […]
parameter measured: half-life

>>> print(df.to_string())
                            compound_string  observed_result
0  CC(C)(N)C(=O)OCN1C(=O)[C@@H](NC(=O)[C@H](CCC(F)(F)F)[C@H](CCC(F)(F)F)C(N)=O)N=C(c2ccccc2)c2ccccc21              8 h
1  N[C@@H](CSNC(=O)[C@@H](CCC(F)(F)F)[C@@H](CCC(F)(F)F)C(=O)N[C@H]1N=C(c2ccccc2)c2ccccc2NC1=O)C(=O)O             58 h
2  CN1C(=O)[C@@H](NC(=O)[C@H](CCC(F)(F)F)[C@H](CCC(F)(F)F)C(=O)NCN2CCC(N(C)C)CC2)N=C(c2ccccc2)c2ccccc21          > 500 h
3  CN1CCN(CNC(=O)[C@@H](CCC(F)(F)F)[C@@H](CCC(F)(F)F)C(=O)N[C@H]2N=C(c3ccccc3)c3ccccc3N(C)C2=O)CC1          > 500 h
4  C[C@H](N)C(=O)OCN1C(=O)[C@@H](NC(=O)[C@H](CCC(F)(F)F)[C@H](CCC(F)(F)F)C(N)=O)N=C(c2ccccc2)c2ccccc21              5 h
5  NC(=O)[C@@H](CCC(F)(F)F)[C@@H](CCC(F)(F)F)C(=O)N[C@H]1N=C(c2ccccc2)c2ccccc2N(COC(=O)C2(N)CC2)C1=O          > 500 h

* * *

# procedure text: Thermodynamic Equilibrium Aqueous Solubility Assay
# Format: physicochemical
# particulars: potassium phosphate buffer, pH 6.5, aqueous buffer, thermodynamic from solid; read-out: Solubility (mg/mL) pH 6.5
Below, each of the compounds is paired with its reported solubility at 24 h value.

compound	measurement qualifier	solubility at 24 h / mg/mL
CN1CCN(CNC(=O)[C@@H](CCC(F)(F)F)[C@@H](CCC(F)(F)F)C(=O)N[C@H]2N=C(c3ccccc3)c3ccccc3N(C)C2=O)CC1	>	0.41
CN(C)CCSNC(=O)[C@@H](CCC(F)(F)F)[C@@H](CCC(F)(F)F)C(=O)N[C@H]1N=C(c2ccccc2)c2ccccc2N(C)C1=O	=	0.94
CN1C(=O)[C@@H](NC(=O)[C@H](CCC(F)(F)F)[C@H](CCC(F)(F)F)C(=O)NCN2CCCC2)N=C(c2ccccc2)c2ccccc21	=	0.03
CN1C(=O)[C@@H](NC(=O)[C@H](CCC(F)(F)F)[C@H](CCC(F)(F)F)C(=O)NCN2CCC(N(C)C)C2)N=C(c2ccccc2)c2ccccc21 (some centres unmarked)	=	0.63
NC(=O)[C@@H](CCC(F)(F)F)[C@@H](CCC(F)(F)F)C(=O)N[C@H]1N=C(c2ccccc2)c2ccccc2N(COC(=O)c2ccc(COP(=O)(O)O)cc2)C1=O	=	0.42
